Data credit: PubChem BioAssay (EPA / NIEHS)

Assay: CCTE_Shafer_MEA_acute_per_burst_spike_number_mean: CCTE's Neural Acute Assay for Average Number of Spikes Per Burst, Shafer Lab (AID 2284015);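 note: hits are decreases in mean spikes per burst versus baseline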
Experimental: CCTE_Shafer_MEA_acute assay is conducted using Axion Biosystems 48 well microelectrode array (MEA) plates and Maestro recording system. Each well of the MEA plate contains a grid of 16 microelectrodes embedded in the culture surface. Electrically active cells, such as neurons, can be cultured over the electrodes, and electrical activity in these cells can be recorded extracellularly. […]
Activity calls are given as the source filed them. Rule for the calls: active = hit-call score of the fitted dose curve at least 0.9, where 1 is the maximum; inactive = score below 0.9.
Property label: AC50

Molecule: CC#Cc1cc(C)nc(Nc2ccccc2)n1
Value: 7840 nM (active)
//
Molecule: ClC1=C(Cl)[C@]2(Cl)[C@@H]3[C@@H]4C[C@@H]([C@H]5O[C@@H]45)[C@@H]3[C@@]1(Cl)C2(Cl)Cl
Value: 126 nM (active)
//
Molecule: CCC(C)c1cc([N+](=O)[O-])cc([N+](=O)[O-])c1O (configuration not stated)
Value: inactive
//
Molecule: O=C(O)C(F)(F)C(F)(F)C(F)(F)C(F)(F)C(F)(F)F
Value: inactive
//
Molecule: ClC1=C(Cl)[C@]2(Cl)[C@@H]3[C@H]4C[C@H]([C@@H]5O[C@H]45)[C@@H]3[C@@]1(Cl)C2(Cl)Cl
Value: 494 nM (active)

Record CC(C)C(=O)OCC(C)(C)C(OC(=O)C(C)C)C(C)C (configuration not stated) . Reported AC50: inactive

Record CCCN(CCC)N=O . Reported AC50: inactive

* * *

Test: APR_HepG2_MitoticArrest_24hr: Apredica 24-hour HepG2 Assay for Mitotic Arrest (AID 2282910)
Details: high-content imaging, actives raise or lower the signal
Activity calls are given as the source filed them. How the source made its calls: active means hit-call score of the fitted dose curve at least 0.9, where 1 is the maximum; inactive means score below 0.9.

Chemical smiles: CCCCCCCCOC(=O)c1ccccc1C(=O)OCCCCCCCC
AC50: inactive
//
Chemical smiles: c1ccc(-c2ccccc2)cc1
AC50: inactive
//
Chemical smiles: CCCCCCCCCc1ccc(O)cc1
AC50: inactive
//
Chemical smiles: CCCCCCCCCC[N+](C)(C)CCCCCCCCCC
AC50: 4.34 µM (active)

* * *

Read-out: Interferon-gamma inducible Protein 10 (IP10), CXCL10 (gene 3627)
Test: BSK_KF3CT_IP10: BioMAP Diversity Plus: KF3CT Assay for Interferon-gamma inducible Protein 10 (IP10) Biomarker Activity (AID 2283068)
Conditions: primary human keratinocytes with fibroblasts; actives raise or lower the signal
Active and inactive are the calls of the source. The calls were made as follows: active = hit-call score of the fitted dose curve at least 0.9, where 1 is the maximum; inactive = score below 0.9.
Hi! Could you answer with just one of these? active, inactive

input: Answer briefly: the call reported for CCCCCCCCCC[N+](C)(C)CCCCCCCCCC in this assay.
output: active

input: Answer briefly: the call reported for ClC1=C(Cl)[C@]2(Cl)[C@@H]3[C@@H]4C[C@@H]([C@H]5O[C@@H]45)[C@@H]3[C@@]1(Cl)C2(Cl)Cl in this assay.
output: inactive

input: Answer briefly: the call reported for CCCCCCCCOC(=O)c1ccccc1C(=O)OCCCCCCCC in this assay.
output: inactive

input: Answer briefly: the call reported for O=C(O)C(F)(F)C(F)(F)C(F)(F)C(F)(F)C(F)(F)F in this assay.
output: inactive

* * *

Read-out: Vascular endothelial growth factor receptor 2 (Homo sapiens)
Experiment: BSK_4H_VEGFRII: BioMAP Diversity Plus: 4H Assay for Vascular endothelial growth factor receptor 2 (VEGFR2) Biomarker Activity (AID 2283031);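 for AC50: cell-surface VEGFR2 protein level quantified by ELISA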
Details: primary human endothelial cells (HUVEC); actives raise or lower the signal
Method: BSK_4H is a cell-based, multiplexed-readout assay that uses umbilical vein endothelium, a human vascular primary cell, with measurements taken at 24 hours after chemical dosing in a 96-well plate.BSK_4H_VEGFRII is an assay component measured in the BSK_4H assay. It measures VEGFRII antibody related to regulation of gene expression using ELISA technology.Data from the assay component BSK_4H_VEGFRII was analyzed into 1 assay endpoint. […]
Calls of active or inactive are those of the source. Rule for the calls: active = hit-call score of the fitted dose curve at least 0.9, where 1 is the maximum; inactive = score below 0.9.
Property label: AC50

Chemical smiles: Nc1ccc(-c2ccc(N)cc2)cc1
AC50: inactive
--
Chemical smiles: O=C(O)C(F)(F)C(F)(F)C(F)(F)C(F)(F)C(F)(F)F
AC50: inactive
--
Chemical smiles: CCCCCCCCCC[N+](C)(C)CCCCCCCCCC
AC50: 2.01 µM (active)
--
Chemical smiles: Sc1ccccc1
AC50: inactive
--
Chemical smiles: Cc1ccccc1O
AC50: inactive

Record O=C(NC(=O)c1c(F)cccc1F)Nc1cc(Cl)c(OC(F)(F)C(F)F)c(Cl)c1 . Reported AC50: inactive

Record C=CC(N)=O . Reported AC50: inactive

Record CCC(C)(CC)c1cc(NC(=O)c2c(OC)cccc2OC)on1 . Reported AC50: inactive

Record CCC(=O)O[C@H]1CC[C@H]2[C@@H]3CCC4=CC(=O)CC[C@]4(C)[C@H]3CC[C@]12C . Reported AC50: 28 µM (active)

Record CCSC(=O)N(CC)C1CCCCC1 . Reported AC50: inactive
